Entries and their Barnyardgrass plant response rating (0 to 100 scale)
- Test system: barnyardgrass (Echinochloa crus-galli)
- ASSAY REMARKS: Test A preemergence, visual injury rating 0-100 (0 no effect, 100 complete control)
- Type: in vivo
- REPORTED CONDITIONS: 500 g ai/ha
OBSERVABLE: Barnyardgrass plant response rating (0 to 100 scale)

COMPOUND: CC1=[N+]([O-])C(C(=O)Nc2cccc(F)c2F)C(c2cccc(Oc3ncc(Cl)cn3)c2)C1 (racemic)
ASSAYED SYSTEM: barnyardgrass (Echinochloa crus-galli)
READOUT NUMBER: 90
//
COMPOUND: CC1=[N+]([O-])C(C(=O)Nc2cccc(F)c2F)C(c2ccc(F)cc2Oc2ncc(F)cn2)C1 (racemic)
ASSAYED SYSTEM: barnyardgrass (Echinochloa crus-galli)
READOUT NUMBER: 100
//
COMPOUND: CC1=[N+]([O-])C(C(=O)Nc2cccc(F)c2F)C(c2cc(C)n(Cc3ccc(Cl)cc3)c(=O)c2)C1 (racemic)
ASSAYED SYSTEM: barnyardgrass (Echinochloa crus-galli)
READOUT NUMBER: 0
//
COMPOUND: CC1=[N+]([O-])C(C(=O)Nc2cccc(F)c2F)C(c2cc(F)cc(Oc3ccc(Cl)nc3)c2)C1 (racemic)
ASSAYED SYSTEM: barnyardgrass (Echinochloa crus-galli)
READOUT NUMBER: 90
//
COMPOUND: CC1=[N+]([O-])C(C(=O)Nc2cccc(F)c2F)C(c2ccc(C)c(C(F)(F)F)c2)C1 (racemic)
ASSAYED SYSTEM: barnyardgrass (Echinochloa crus-galli)
READOUT NUMBER: 90
//
COMPOUND: CCc1cc(CC)cc(C2CC(C)=[N+]([O-])C2C(=O)Nc2cccc(F)c2F)c1 (racemic)
ASSAYED SYSTEM: barnyardgrass (Echinochloa crus-galli)
READOUT NUMBER: 100
//
COMPOUND: CC1=[N+]([O-])C(C(=O)Nc2cccc(F)c2F)C(c2cccc(C(F)(F)F)c2C)C1 (racemic)
ASSAYED SYSTEM: barnyardgrass (Echinochloa crus-galli)
READOUT NUMBER: 90
//
COMPOUND: COc1ccc(C2CC(C)=[N+]([O-])C2C(=O)Nc2cccc(F)c2F)cc1C(F)(F)F (racemic)
ASSAYED SYSTEM: barnyardgrass (Echinochloa crus-galli)
READOUT NUMBER: 90
//
COMPOUND: CC1=[N+]([O-])[C@H](C(=O)Nc2cccc(F)c2F)[C@@H](c2ccc(C(F)(F)F)c(F)c2)C1 (relative stereo)
ASSAYED SYSTEM: barnyardgrass (Echinochloa crus-galli)
READOUT NUMBER: 90
//
COMPOUND: CC1=[N+]([O-])C(C(=O)Nc2cccc(F)c2F)C(c2ccc(F)c(Cl)c2)C1 (racemic)
ASSAYED SYSTEM: barnyardgrass (Echinochloa crus-galli)
READOUT NUMBER: 90
//
COMPOUND: CC1=[N+]([O-])C(C(=O)Nc2cccc(F)c2F)C(c2cc(C(F)(F)F)ccc2C)C1 (stereo not drawn)
ASSAYED SYSTEM: barnyardgrass (Echinochloa crus-galli)
READOUT NUMBER: 90
//
COMPOUND: CC1=[N+]([O-])C(C(=O)Nc2cccc(F)c2F)C(c2cccc(C(F)(F)F)n2)C1 (stereo not drawn)
ASSAYED SYSTEM: barnyardgrass (Echinochloa crus-galli)
READOUT NUMBER: 90
//
COMPOUND: CC1=[N+]([O-])C(C(=O)Nc2cccc(F)c2F)C(c2ccc(OC(F)(F)F)c(F)c2)C1 (racemic)
ASSAYED SYSTEM: barnyardgrass (Echinochloa crus-galli)
READOUT NUMBER: 90
//
COMPOUND: CC1=[N+]([O-])C(C(=O)Nc2cccc(F)c2F)C(c2ccc(=O)n(Cc3ccc(Cl)cc3)c2)C1 (racemic)
ASSAYED SYSTEM: barnyardgrass (Echinochloa crus-galli)
READOUT NUMBER: 0
//
COMPOUND: CC1=[N+]([O-])C(C(=O)Nc2cccc(F)c2F)C(c2cc(C)cc(F)c2)C1 (racemic)
ASSAYED SYSTEM: barnyardgrass (Echinochloa crus-galli)
READOUT NUMBER: 90

* * *

Entries and their Ragweed plant response rating
- System: ragweed (common ragweed, Ambrosia elatior)
- ASSAY REMARKS: Test A postemergence, visual injury rating 0-100
- Assay type: in vivo
- REPORTED CONDITIONS: 500 g ai/ha, 0 to 100 scale

COMPOUND: CC1=[N+]([O-])C(C(=O)Nc2cccc(F)c2F)C(c2ccccc2C)C1 (racemic)
Ragweed plant response rating: 0
--
COMPOUND: CC1=[N+]([O-])C(C(=O)Nc2cccc(C#N)c2F)C(c2ccc(C(F)(F)F)cc2)C1 (racemic)
Ragweed plant response rating: 70
--
COMPOUND: CC1=[N+]([O-])[C@H](C(=O)Nc2cccc(F)c2F)[C@@H](c2ccc(C(F)(F)F)c(F)c2)C1 (relative stereo)
Ragweed plant response rating: 50
--
COMPOUND: CCOc1cc(OC)cc(C2CC(C)=[N+]([O-])C2C(=O)Nc2cccc(F)c2F)c1 (racemic)
Ragweed plant response rating: 0

* * *

- Tested on: barnyardgrass (Echinochloa crus-galli)
- ASSAY REMARKS: Test B flooded paddy test, visual rating 0-100
- REPORTED CONDITIONS: Flood, 250 g ai/ha, applied to paddy water, rated after 13 to 15 days
Entries and their Barnyardgrass plant response rating (0 to 100 scale)
OBSERVABLE: Barnyardgrass plant response rating (0 to 100 scale)

COMPOUND: CC1=[N+]([O-])[C@@H](C(=O)Nc2ccccc2F)[C@H](c2ccc(C(F)(F)F)cc2)C1 (relative stereo) [Compound 26]
READOUT NUMBER: 60
//
COMPOUND: CC1=[N+]([O-])C(C(=O)Nc2cccc(F)c2F)C(c2ccc(C)c(Br)c2)C1 (racemic) [Compound 71]
READOUT NUMBER: 0
//
COMPOUND: CC1=[N+]([O-])C(C(=O)Nc2cccc(F)c2F)C(c2ccc(F)cc2Oc2ncc(F)cn2)C1 (racemic) [Compound 68]
READOUT NUMBER: 0
//
COMPOUND: CSc1ccccc1NC(=O)C1C(c2ccc(C(F)(F)F)cc2)CC(C)=[N+]1[O-] (racemic) [Compound 29]
READOUT NUMBER: 0
//
COMPOUND: CC1=[N+]([O-])C(C(=O)Nc2cccc(F)c2F)C(c2ccc(C)c(C)c2)C1 (racemic) [Compound 24]
READOUT NUMBER: 70
//
COMPOUND: CC1=[N+]([O-])C(C(=O)Nc2cccc(F)c2F)C(c2cccc(Oc3ccc(F)cc3)c2)C1 (racemic) [Compound 58]
READOUT NUMBER: 0
//
COMPOUND: CCc1cc(CC)cc(C2CC(C)=[N+]([O-])C2C(=O)Nc2cccc(F)c2F)c1 (racemic) [Compound 109]
READOUT NUMBER: 0
//
COMPOUND: COc1ccc(C2CC(C)=[N+]([O-])C2C(=O)Nc2cccc(F)c2F)cc1C(F)(F)F (racemic) [Compound 74]
READOUT NUMBER: 45
//
COMPOUND: CC1=[N+]([O-])C(C(=O)Nc2cccc(F)c2F)C(c2ccccc2F)C1 (racemic) [Compound 21]
READOUT NUMBER: 40
